growth listing for selected compounds.
System: OVCAR-3 ovarian
protocol.notes: NCI-60 one-dose screen, 48 h (100 = growth as untreated, 0 = no growth, -100 = all killed)
condition.parameters: 10 µM unless noted
Procedure: Growth inhibition of the OVCAR-3 human tumor cell line is measured as a screen for anti-cancer activity. Cells are grown in 96 well plates and exposed to the test compound for 48 hours. Compounds are tested at a single concentration, which is 10^-5 M for most compounds. The reported endpoint is percent growth (GI% or GIPRCNT), where numbers from 0 - 100% represent growth inhibition, and numbers from -100% - 0 represent cell death. For example, a value of 40 represents 60% growth inhibition. […]
About 83,000 compounds went through this panel and 20% of them were active in at least one assay; those are over-represented in the sample as a whole.
Could you give me the number in %? Just the number is fine.

Take a look at these entries with their results.
>>> observed_value("COc1cc(C(=O)/C=C/c2cn(-c3ccccc3)nc2-c2cccc(Nc3ccnc4cc(Cl)ccc34)c2)cc(OC)c1OC")
132
>>> observed_value("CCc1ccc(Nc2ncnc3c2cnn3-c2cccc(Br)c2)cc1")
103
>>> observed_value("Cc1cc(O)c(C2=NN(c3ccc(S(N)(=O)=O)cc3)C(c3ccc(Cl)cc3)C2)c(C)c1Cl (stereo not given)")
68.1
>>> observed_value("C=CCN(CCOC(=O)c1ccc([N+](=O)[O-])cc1)CCOC(=O)c1ccc([N+](=O)[O-])cc1")
104

O=C(Oc1c(Cl)c(Cl)c(Cl)c(Cl)c1Cl)C1CCCN1C(=O)OCc1ccccc1 (stereo not given) yielded growth of 79.1
